target: NACHT, LRR and PYD domains-containing protein 3 (Mus musculus, UniProt Q8R4B8); assay: Inhibition of NLRP3 in mouse J774A.1 cells infected with FLA-ST assessed as inhibition of LPS- induced IL-1beta production by ELISA; format: cell-based, J774.A1
Sequence (Q8R4B8 whole entry, the tested form may be a part): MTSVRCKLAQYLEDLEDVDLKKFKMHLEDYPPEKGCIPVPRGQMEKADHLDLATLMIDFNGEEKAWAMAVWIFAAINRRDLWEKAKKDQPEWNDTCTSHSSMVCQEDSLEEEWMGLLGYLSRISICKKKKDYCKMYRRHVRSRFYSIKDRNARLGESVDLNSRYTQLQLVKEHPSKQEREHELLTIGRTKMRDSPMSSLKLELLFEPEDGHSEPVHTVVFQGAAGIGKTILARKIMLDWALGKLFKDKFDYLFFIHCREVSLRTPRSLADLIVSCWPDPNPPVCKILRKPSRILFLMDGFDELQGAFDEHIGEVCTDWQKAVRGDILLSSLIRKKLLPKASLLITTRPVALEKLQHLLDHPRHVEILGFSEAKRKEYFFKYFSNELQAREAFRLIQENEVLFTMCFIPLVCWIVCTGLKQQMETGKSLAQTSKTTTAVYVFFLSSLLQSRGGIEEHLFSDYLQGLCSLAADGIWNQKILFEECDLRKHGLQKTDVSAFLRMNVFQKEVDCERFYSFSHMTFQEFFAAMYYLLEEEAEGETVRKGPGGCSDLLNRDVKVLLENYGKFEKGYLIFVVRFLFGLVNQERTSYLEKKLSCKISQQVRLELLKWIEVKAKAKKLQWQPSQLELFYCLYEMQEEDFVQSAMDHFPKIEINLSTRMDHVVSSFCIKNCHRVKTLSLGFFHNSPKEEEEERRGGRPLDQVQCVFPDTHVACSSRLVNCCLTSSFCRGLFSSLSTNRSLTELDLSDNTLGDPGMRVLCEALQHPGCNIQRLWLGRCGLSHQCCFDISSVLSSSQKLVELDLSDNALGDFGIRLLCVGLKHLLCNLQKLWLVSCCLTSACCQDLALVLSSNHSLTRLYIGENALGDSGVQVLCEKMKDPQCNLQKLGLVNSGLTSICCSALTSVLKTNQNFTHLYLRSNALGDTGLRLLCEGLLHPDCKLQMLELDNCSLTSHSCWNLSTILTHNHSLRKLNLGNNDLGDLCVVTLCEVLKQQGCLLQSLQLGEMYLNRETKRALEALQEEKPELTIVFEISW
metric: IC50 (µM)

CSc1ccc(C(=O)/C=C/c2cc(C)c(OCCO)c(C)c2)cc1    12.7

P. Cc1cc(/C=C/C(=O)c2ccc(S(C)(=O)=O)cc2)cc(C)c1O
Q. Cc1cc(/C=C/C(=O)c2ccc(I)cc2)cc(C)c1O
Higher IC50 between P and Q ? State the label of the item chosen.
Q
(Q: 28.6 µM, P: 12.9 µM)

P. Cc1cc(/C=C/C(=O)c2ccc(NS(=O)(=O)c3ccc(F)cc3)cc2)cc(C)c1O
Q. CSc1ccc(C(=O)/C=C/c2cc(C)c(OC(C)(C)C(=O)O)c(C)c2)cc1
Please indicate which has the smaller reported IC50: P , or Q . Identify your selection by its label.
P
(P: 5 µM, Q: 39.6 µM)

P. CSc1ccc(C(=O)/C=C/c2ccc(O)c(C)c2)cc1
Q. Cc1cc(/C=C/C(=O)c2ccc(NS(=O)(=O)NC(C)C)cc2)cc(C)c1O
# returns the entry with the larger IC50; inputs P and Q Identify your pick by its label.
P
(P: 8.8 µM, Q: 3.4 µM)

P. Cc1cc(/C=C/C(=O)c2ccc(Cl)cc2)cc(C)c1O
Q. COc1c(C)cc(/C=C/C(=O)c2ccc(N(C)C)cc2)cc1C
For the pair P and Q , which member has the lower IC50 number? // return label of chosen record
P
